Target: RET V804M (Homo sapiens, UniProt P07949, V804M)
Sequence (P07949 29-1114 V804M): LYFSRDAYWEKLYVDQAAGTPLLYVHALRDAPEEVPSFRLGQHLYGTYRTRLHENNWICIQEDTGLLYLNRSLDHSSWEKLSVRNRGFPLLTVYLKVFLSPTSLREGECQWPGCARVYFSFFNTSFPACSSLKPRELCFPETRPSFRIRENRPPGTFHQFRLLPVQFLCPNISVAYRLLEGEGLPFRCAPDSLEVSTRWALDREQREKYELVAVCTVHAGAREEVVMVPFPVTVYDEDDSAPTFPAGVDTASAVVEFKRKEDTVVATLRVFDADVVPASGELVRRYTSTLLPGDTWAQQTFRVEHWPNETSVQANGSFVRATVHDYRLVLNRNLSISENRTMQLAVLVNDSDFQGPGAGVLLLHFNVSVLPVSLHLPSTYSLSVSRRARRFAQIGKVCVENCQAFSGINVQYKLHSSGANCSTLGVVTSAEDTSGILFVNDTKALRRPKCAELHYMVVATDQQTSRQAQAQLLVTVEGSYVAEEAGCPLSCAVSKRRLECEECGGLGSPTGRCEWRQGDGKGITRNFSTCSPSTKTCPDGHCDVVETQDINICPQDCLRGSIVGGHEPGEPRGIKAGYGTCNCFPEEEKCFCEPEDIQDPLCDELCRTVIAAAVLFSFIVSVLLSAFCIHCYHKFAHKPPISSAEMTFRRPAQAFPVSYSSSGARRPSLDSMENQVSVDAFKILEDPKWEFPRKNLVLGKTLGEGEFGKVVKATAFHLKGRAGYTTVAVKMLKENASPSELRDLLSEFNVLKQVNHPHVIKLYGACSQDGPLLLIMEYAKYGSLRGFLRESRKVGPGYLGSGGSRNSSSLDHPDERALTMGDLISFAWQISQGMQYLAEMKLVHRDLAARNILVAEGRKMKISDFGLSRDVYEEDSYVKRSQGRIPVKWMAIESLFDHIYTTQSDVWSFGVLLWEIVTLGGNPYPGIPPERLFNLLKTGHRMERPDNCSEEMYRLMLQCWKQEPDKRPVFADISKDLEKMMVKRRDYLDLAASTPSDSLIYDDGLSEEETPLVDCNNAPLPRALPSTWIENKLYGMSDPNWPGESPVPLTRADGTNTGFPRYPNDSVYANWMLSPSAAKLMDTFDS
Experiment: In vitro kinase activity assay (mobility shift assay), RET V804M
Conditions: ATP 5.4 μM, reaction time 60 min
Could you please mark Satisfied for values of IC50 below 300 nM and Not satisfied for values at or above it?

> print(dat)
                                   compound                        measurement.target  qualitative.label
1  C[C@H]1CN(C)C(=O)c2cnn3c(N)c(-c4ccccc4)c(nc23)NCc2cc(F)cnc2O1  RET V804M (Homo sapiens, UniProt P07949, V804M)      Not satisfied
2  CCN(C)C(=O)Nc1ccc(-c2c3nc4c(cnn4c2N)C(=O)NC[C@H](C)Oc2ncc(F)cc2CN3)cc1  RET V804M (Homo sapiens, UniProt P07949, V804M)      Not satisfied
3  CCNC(=O)Cc1ccc(-c2c3nc4c(cnn4c2N)C(=O)NC[C@H](C)Oc2ncc(F)cc2CN3)cc1  RET V804M (Homo sapiens, UniProt P07949, V804M)          Satisfied
4  CNC(=O)Nc1ccc(-c2cn3ncc4c3nc2NCc2cc(F)cnc2O[C@@H](C)CNC4=O)cc1  RET V804M (Homo sapiens, UniProt P07949, V804M)          Satisfied
5  C[C@H]1CNC(=O)c2cnn3cc(-c4ccccc4)c(nc23)NCc2cc(Nc3ccccn3)cnc2O1  RET V804M (Homo sapiens, UniProt P07949, V804M)      Not satisfied
6  C[C@H]1CNC(=O)c2cnn3c(N)c(-c4ccc(NC(=O)OCC5CC5)cc4)c(nc23)NCc2cc(F)cnc2O1  RET V804M (Homo sapiens, UniProt P07949, V804M)          Satisfied
7  Nc1c(-c2ccccc2)c2nc3c(cnn13)C(=O)NC1CCCC1Oc1ncc(F)cc1CN2 (stereo not shown)  RET V804M (Homo sapiens, UniProt P07949, V804M)          Satisfied

* * *

Listing: log10 of IC50 of selected compounds
Molecular target: BTK (Homo sapiens)
Sequence (Q06187 whole entry): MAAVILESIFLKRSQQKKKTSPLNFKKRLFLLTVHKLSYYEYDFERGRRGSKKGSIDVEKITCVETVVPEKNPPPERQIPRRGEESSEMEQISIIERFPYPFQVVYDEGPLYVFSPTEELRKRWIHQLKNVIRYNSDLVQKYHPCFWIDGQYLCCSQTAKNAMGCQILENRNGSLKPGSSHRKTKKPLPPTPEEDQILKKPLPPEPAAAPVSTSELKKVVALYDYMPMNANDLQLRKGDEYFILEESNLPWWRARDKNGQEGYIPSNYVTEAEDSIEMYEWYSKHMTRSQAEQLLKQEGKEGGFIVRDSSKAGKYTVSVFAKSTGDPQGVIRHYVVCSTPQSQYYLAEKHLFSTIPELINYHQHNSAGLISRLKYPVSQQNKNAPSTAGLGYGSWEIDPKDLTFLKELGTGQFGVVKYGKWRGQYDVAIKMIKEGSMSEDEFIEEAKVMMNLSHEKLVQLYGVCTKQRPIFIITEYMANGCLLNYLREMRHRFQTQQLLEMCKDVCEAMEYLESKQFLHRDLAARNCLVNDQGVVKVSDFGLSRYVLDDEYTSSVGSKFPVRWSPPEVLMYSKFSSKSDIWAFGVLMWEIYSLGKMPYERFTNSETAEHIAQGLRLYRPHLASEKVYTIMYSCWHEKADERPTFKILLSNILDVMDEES
OBSERVATION_TYPE: log10 of IC50 (log10 of the value in nM)

> print(dat)
                                        smi  measurement
1  C[C@H]1CNC(=O)c2cnn3c(N)c(-c4ccccc4F)c(nc23)NCc2cc(F)cnc2O1         0.23
2  COC(=O)Nc1ccc(-c2cn3ncc4c3nc2NCc2cc(F)cnc2O[C@@H](C)CNC4=O)c(Cl)c1         1.19
3  C[C@H]1CN(C)C(=O)c2cnn3c(N)c(-c4ccccc4)c(nc23)NCc2cc(F)cnc2O1         1.34
4  C[C@H]1CNC(=O)c2cnn3cc(-c4ccccc4)c(nc23)NCc2cc(F)cnc2O1         1.53
5  C[C@H]1CNC(=O)c2cnn3cc(-c4cnn(C)c4)c(nc23)NCc2cc(F)cnc2O1         2.47
6  C[C@H]1CNC(=O)c2cnn3cc(-c4ccc(Cl)cc4)c(nc23)NCc2cc(F)cnc2O1         1.41
7  COC(=O)Nc1ccc(-c2c3nc4c(cnn4c2N)C(=O)NC[C@H](C)Oc2ncc(F)cc2CN3)cc1         0.96
